- assayed_system: ZNF721 full-length (Homo sapiens, UniProt Q8TF20-2 1-923)
- Sequence (Q8TF20 other isoform, or with tags, fused parts or gaps): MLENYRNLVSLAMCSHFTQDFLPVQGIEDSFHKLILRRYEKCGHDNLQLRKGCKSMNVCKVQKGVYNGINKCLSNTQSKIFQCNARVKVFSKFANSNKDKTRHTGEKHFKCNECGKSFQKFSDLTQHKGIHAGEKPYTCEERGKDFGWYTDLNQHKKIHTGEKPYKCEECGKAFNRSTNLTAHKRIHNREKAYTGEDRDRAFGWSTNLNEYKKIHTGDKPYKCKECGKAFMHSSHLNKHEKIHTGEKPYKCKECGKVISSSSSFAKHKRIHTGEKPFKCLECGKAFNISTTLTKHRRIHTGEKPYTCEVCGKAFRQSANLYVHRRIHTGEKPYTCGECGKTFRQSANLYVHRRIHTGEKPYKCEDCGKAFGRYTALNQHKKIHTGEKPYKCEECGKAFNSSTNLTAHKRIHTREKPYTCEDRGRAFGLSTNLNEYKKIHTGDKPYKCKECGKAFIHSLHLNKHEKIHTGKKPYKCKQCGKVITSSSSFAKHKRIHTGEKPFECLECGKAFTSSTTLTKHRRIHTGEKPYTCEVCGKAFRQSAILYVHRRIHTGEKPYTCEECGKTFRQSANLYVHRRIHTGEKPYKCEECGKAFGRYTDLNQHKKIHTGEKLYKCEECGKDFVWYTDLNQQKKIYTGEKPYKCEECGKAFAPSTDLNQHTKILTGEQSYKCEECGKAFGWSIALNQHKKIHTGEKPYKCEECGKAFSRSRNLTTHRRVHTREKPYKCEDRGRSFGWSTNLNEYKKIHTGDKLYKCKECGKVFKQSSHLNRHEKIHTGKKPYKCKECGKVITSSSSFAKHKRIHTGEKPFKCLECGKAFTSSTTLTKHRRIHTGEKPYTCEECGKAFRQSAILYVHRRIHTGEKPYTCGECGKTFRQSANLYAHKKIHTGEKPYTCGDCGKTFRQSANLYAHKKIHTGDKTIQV
- protocol: HT-SELEX; 20 mM HEPES pH 7, 140 mM KCl, 5 mM NaCl, 1 mM K2HPO4, 2 mM MgSO4, 100 uM EGTA, ZnSO4, 0.1% Tween20; room temperature, 1 h; high values mean tight binding
- condition_set: protein: ivt; tags: eGFP (N-terminal); dsDNA, one strand shown
Reported binding signal values for a set of sequences
measurement_name: binding signal

INSERT INTO assay_data (residues, measurement_name, measured_result) VALUES
  ('CTCCCCTCCC', 'binding signal', '0.135 relative 10-mer count'),
  ('ACAGCGTATC', 'binding signal', '0.232 relative 10-mer count'),
  ('CCCCACCGCC', 'binding signal', '0.28 relative 10-mer count'),
  ('ACAAAAAAGC', 'binding signal', '0.187 relative 10-mer count'),
  ('CCACCTCCCA', 'binding signal', '0.127 relative 10-mer count'),
  ('ACCCACCCGC', 'binding signal', '0.102 relative 10-mer count'),
  ('TCCCCACCCA', 'binding signal', '0.122 relative 10-mer count'),
  ('CCACCAACCC', 'binding signal', '0.156 relative 10-mer count'),
  ('CCACCCCCCC', 'binding signal', '0.32 relative 10-mer count'),
  ('ACCCCCACCG', 'binding signal', '0.102 relative 10-mer count'),
  ('CCGCCCCTCC', 'binding signal', '0.151 relative 10-mer count'),
  ('CCACCGCCAC', 'binding signal', '0.12 relative 10-mer count'),
  ('AAAAAAAACA', 'binding signal', '0.37 relative 10-mer count'),
  ('ATGAAGTGTA', 'binding signal', '0.376 relative 10-mer count'),
  ('CCCTCCCACC', 'binding signal', '0.265 relative 10-mer count'),
  ('CCCCCCAGCC', 'binding signal', '0.118 relative 10-mer count'),
  ('CGCCCACCCC', 'binding signal', '0.23 relative 10-mer count'),
  ('CCGCCCTCCC', 'binding signal', '0.148 relative 10-mer count'),
  ('CCAACCCCCC', 'binding signal', '0.169 relative 10-mer count'),
  ('AGTGTATCCA', 'binding signal', '0.248 relative 10-mer count'),
  ('CAAAAACAGC', 'binding signal', '0.163 relative 10-mer count'),
  ('GAAAAAAACA', 'binding signal', '0.2 relative 10-mer count'),
  ('CAGGGTGGGG', 'binding signal', '0.111 relative 10-mer count'),
  ('AACAGCGTAC', 'binding signal', '0.19 relative 10-mer count'),
  ('CACTGTTTTC', 'binding signal', '0.15 relative 10-mer count'),
  ('CCGCCTCCCC', 'binding signal', '0.155 relative 10-mer count'),
  ('CACACCCCAC', 'binding signal', '0.123 relative 10-mer count'),
  ('GCCCCCCCAC', 'binding signal', '0.112 relative 10-mer count'),
  ('CGCCCCACCA', 'binding signal', '0.117 relative 10-mer count'),
  ('CCCACCCCTA', 'binding signal', '0.119 relative 10-mer count'),
  ('CACACCCACC', 'binding signal', '0.135 relative 10-mer count'),
  ('AAAACAGTGT', 'binding signal', '0.495 relative 10-mer count'),
  ('ACAAAAAAAG', 'binding signal', '0.12 relative 10-mer count'),
  ('CACCCAACCC', 'binding signal', '0.123 relative 10-mer count'),
  ('CAAAAAAGCA', 'binding signal', '0.259 relative 10-mer count'),
  ('CACCGCCCAC', 'binding signal', '0.123 relative 10-mer count'),
  ('CGCCCCCCTC', 'binding signal', '0.116 relative 10-mer count'),
  ('CCTCCCGCCC', 'binding signal', '0.161 relative 10-mer count'),
  ('CCCTCACCCC', 'binding signal', '0.193 relative 10-mer count'),
  ('AAAACAGTAC', 'binding signal', '0.126 relative 10-mer count'),
  ('AAAACAAGCA', 'binding signal', '0.157 relative 10-mer count'),
  ('CTCCCCCCCC', 'binding signal', '0.158 relative 10-mer count'),
  ('CACCCCACCA', 'binding signal', '0.182 relative 10-mer count');
